target: PI3Kα H1047R (T47D cells) (Homo sapiens, UniProt P42336, H1047R); construct: endogenous in cells; host or cells: T47D cells; assay: PI3Kα cellular assay: pAKT HTRF in T47D cells after EGF stimulation; type: cell-based; details: selectivity of T47D (H1047R) over SKBR3 (WT) pAKT IC50
Sequence (P42336 whole entry H1047R): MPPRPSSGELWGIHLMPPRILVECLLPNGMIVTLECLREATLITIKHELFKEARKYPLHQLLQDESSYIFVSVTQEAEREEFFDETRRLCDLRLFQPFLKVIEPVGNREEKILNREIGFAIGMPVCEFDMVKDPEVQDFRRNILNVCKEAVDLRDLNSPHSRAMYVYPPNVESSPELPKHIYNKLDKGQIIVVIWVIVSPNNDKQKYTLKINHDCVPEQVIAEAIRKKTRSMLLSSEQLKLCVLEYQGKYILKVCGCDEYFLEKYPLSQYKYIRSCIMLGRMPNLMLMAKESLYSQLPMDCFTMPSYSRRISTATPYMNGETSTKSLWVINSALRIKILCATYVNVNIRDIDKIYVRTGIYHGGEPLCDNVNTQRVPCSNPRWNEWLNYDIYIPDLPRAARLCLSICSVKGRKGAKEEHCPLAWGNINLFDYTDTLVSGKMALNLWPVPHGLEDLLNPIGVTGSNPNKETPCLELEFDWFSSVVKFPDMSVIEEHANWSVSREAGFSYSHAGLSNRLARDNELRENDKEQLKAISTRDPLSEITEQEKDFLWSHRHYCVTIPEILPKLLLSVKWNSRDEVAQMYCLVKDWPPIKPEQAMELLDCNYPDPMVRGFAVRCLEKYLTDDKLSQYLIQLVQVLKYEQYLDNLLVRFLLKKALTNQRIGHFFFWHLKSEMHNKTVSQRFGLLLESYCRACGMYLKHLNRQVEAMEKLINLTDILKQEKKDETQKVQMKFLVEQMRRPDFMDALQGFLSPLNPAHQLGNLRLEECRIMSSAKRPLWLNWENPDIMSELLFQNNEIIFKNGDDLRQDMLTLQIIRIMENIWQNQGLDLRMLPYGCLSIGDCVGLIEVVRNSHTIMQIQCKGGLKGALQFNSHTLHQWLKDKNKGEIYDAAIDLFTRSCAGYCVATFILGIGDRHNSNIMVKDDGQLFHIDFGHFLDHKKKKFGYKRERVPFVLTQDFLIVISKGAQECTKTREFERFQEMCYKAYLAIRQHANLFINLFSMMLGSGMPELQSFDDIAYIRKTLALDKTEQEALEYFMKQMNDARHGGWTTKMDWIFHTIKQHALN
Sequence (P27986 whole entry partner): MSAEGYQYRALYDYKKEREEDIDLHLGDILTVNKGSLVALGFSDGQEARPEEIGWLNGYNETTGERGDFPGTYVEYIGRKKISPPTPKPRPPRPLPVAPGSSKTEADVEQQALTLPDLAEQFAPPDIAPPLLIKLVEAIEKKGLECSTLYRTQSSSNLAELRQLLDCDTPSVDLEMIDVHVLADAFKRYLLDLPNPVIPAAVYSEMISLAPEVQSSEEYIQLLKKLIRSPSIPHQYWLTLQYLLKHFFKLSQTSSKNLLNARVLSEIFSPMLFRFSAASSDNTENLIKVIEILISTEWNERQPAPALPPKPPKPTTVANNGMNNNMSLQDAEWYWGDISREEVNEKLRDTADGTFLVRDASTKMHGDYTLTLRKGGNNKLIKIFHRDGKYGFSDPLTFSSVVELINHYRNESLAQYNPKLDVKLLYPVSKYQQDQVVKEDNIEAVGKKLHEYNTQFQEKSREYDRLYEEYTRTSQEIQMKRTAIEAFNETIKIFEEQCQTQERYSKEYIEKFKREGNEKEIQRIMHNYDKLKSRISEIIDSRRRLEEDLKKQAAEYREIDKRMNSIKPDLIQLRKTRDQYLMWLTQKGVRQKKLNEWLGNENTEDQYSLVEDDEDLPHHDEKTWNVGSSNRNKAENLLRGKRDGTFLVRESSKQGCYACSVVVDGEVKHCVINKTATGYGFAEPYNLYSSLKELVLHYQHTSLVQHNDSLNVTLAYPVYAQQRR
quantity_kind: T47D pAKT S473 HTRF IC50 (H1047R): T47D (H1047R) selectivity over SKBR3 (WT)

// solved cases for T47D pAKT S473 HTRF IC50 (H1047R): T47D (H1047R) selectivity over SKBR3 (WT) follow
IN: # return recorded T47D pAKT S473 HTRF IC50 (H1047R): T47D (H1047R) selectivity over SKBR3 (WT) for input `Cc1cc([C@@H](C)Nc2ccccc2C(=O)O)c2nc(-c3ccc4c(c3)c(N)nn4C)c(C)c(=O)n2c1`
OUT: A (A denotes >20-fold)

IN: # return recorded T47D pAKT S473 HTRF IC50 (H1047R): T47D (H1047R) selectivity over SKBR3 (WT) for input Cc1cc([C@H](C)Nc2ccccc2C(=O)O)c2nc(-c3ccc4c(c3)CC(=O)N4)cc(=O)n2c1 [Compound 766]
OUT: C (C denotes ≤5-fold)

IN: # return recorded T47D pAKT S473 HTRF IC50 (H1047R): T47D (H1047R) selectivity over SKBR3 (WT) for input Cc1cc(C(C)Nc2ccccc2C(=O)O)c2nc(N3CC4(CCOCC4)C3)c(C)c(=O)n2c1 (stereo not drawn)
OUT: A (A denotes >20-fold)

IN: # return recorded T47D pAKT S473 HTRF IC50 (H1047R): T47D (H1047R) selectivity over SKBR3 (WT) for input Cc1cc([C@@H](C)Nc2ccccc2C(=O)O)c2nc(-c3ccc(F)c(C#N)c3)c(C)c(=O)n2c1 (single isomer, unassigned)
OUT: A (A denotes >20-fold)

New cases:
IN: # return recorded T47D pAKT S473 HTRF IC50 (H1047R): T47D (H1047R) selectivity over SKBR3 (WT) for input Cc1cc(C(C)Nc2ccccc2C(=O)O)c2nc(-c3ccc4c(c3)c(C(F)F)nn4C)cc(=O)n2c1 (stereo not drawn)
OUT: A (A denotes >20-fold)

IN: # return recorded T47D pAKT S473 HTRF IC50 (H1047R): T47D (H1047R) selectivity over SKBR3 (WT) for input `Cc1cc([C@H](C)Nc2ccccc2C(=O)O)c2nc(-c3cc4c(N)nn(C)c4cc3C)cc(=O)n2c1`
OUT: C (C denotes ≤5-fold)

----------
Recorded IC50 by entry
target: PI3Kα H1047R (T47D cells) (Homo sapiens, UniProt P42336, H1047R); construct: endogenous in cells; host or cells: T47D cells; assay: PI3Kα cellular assay: pAKT HTRF in T47D cells after EGF stimulation; type: cell-based; conditions: T47D cells (PI3Kα H1047R), pAKT S473 HTRF, EGF stimulation

// solved cases for IC50 follow
IN: # return recorded IC50 for input Cc1cc([C@H](C)Nc2ccccc2C(=O)O)c2nc(-c3ccc4c(C)nn(C)c4c3)c(C)c(=O)n2c1 [Compound 928]
OUT: > 2000 nM

IN: # return recorded IC50 for input Cc1cc(C(C)Nc2ccccc2S(N)(=O)=O)c2nc(-c3cccc(C#N)c3)c(C)c(=O)n2c1 (stereo not shown) [Compound 1033]
OUT: 100 to 500 nM

IN: # return recorded IC50 for input Cc1cc([C@@H](C)Nc2ccccc2S(N)(=O)=O)c2nc(-c3cnc4c(c3)c(C)nn4C3CC3)c(C)c(=O)n2c1 [Compound 991]
OUT: 100 to 500 nM

Let us examine a further case.
IN: # return recorded IC50 for input CCC(=O)N=S(C)(=O)c1ccccc1N[C@@H](C)c1cc(C)cn2c(=O)cc(N3CCOCC3)nc12 (stereo partly shown) [Compound 829]
OUT: > 2000 nM

These measurements were taken from patent US20260132129A1.
